- System: HL-60(TB) leukemia
- assay.comment: NCI tumour cell line growth inhibition, 48 h
Note to self: values exactly at 30 µM are 1. So TGI at or above 30 µM is 1, below is -1.

* C/C(=N\N=C1/C(=O)OC(c2ccccc2)=C1C(=O)c1ccccc1)c1ccc([N+](=O)[O-])cc1 | 1
* COc1cc(Cl)cc(-c2nn(-c3cccc(NC(=O)c4ccc(N5CCOCC5)c(C(F)(F)F)c4)c3)cc2-c2ccncc2)c1 | 1
* COc1ccc2/c(=C/c3ccc(N(C)C)cc3)c3cc(-c4ccccc4)[n+](C)n3c2c1 | -1
* COC(=O)/C=C\C(C#N)(C#N)N=Cc1ccc(C)cc1 | -1
* COC(=O)[C@]12CC[C@@H](C)[C@H](C)[C@@H]1C1=CC[C@@H]3[C@@]4(C)C[C@@H](O)[C@H](O)[C@@](C)(CO)C4=CC[C@@]3(C)[C@]1(C)CC2 | 1
* N[C@@H](Cc1ccccc1)C(=O)N1CCC[C@@H]1P(=O)(Oc1ccccc1)Oc1ccccc1 | 1
* CCOC(=O)c1nc2c(OC)nn(O)cc-2c1[N+](=O)[O-] | 1
* CNCCOC(=O)/C=C1\CC[C@H]2[C@@H]([C@@H](O)C(=O)[C@@H]3[C@]2(C)CC[C@H](O)[C@]3(C)C(=O)OC)[C@H]1C | -1
* c1ccc2c(OCCSCCCCCCCCCCSCCOc3cccc4ccccc34)cccc2c1 | 1

* * *

- System: NCI-H460 lung
- assay.comment: NCI tumour cell line growth inhibition, 48 h
measurement.name: TGI

- CSc1cc(-c2cccs2)sc1-c1cc(SC)c(-c2sc(-c3sc(-c4cccs4)cc3SC)cc2SC)s1: > 100 µM
- O=C(O)CN1CCN2CCCCCN(CC1)CCN(CC(=O)O)CC2: > 100 µM
- O=C(O)CCNc1ncnc2nc[nH]c12: > 100 µM
- N#CC(C#N)=C1SC(=Nc2ccccc2)C(=Nc2ccccc2)N1c1ccccc1: > 31.6 µM
- COc1cc(Cl)cc(-c2nn(-c3cccc(NC(=O)c4ccc(N5CCOCC5)c(C(F)(F)F)c4)c3)cc2-c2ccncc2)c1: > 100 µM

* * *

molecules and their reported TGI
- Tested on: HT29 colon
- assay.comment: NCI tumour cell line growth inhibition, 48 h
measurement.name: TGI (µM)

- Cc1cccc(C)c1NC(=O)C(Cc1c[nH]c2ccccc12)NC(=O)OCc1ccccc1 (stereo not drawn): 68.7
- COc1cc(O)c2c(c1)C(=O)c1cc3c(c(O)c1C2=O)C(OC1OC(C)C(OC)C(O)C1OC)C(OC)C(C)(O)C3=O (stereo not drawn): 11.8
- O=C(/C=C/c1ccccc1)Oc1ccc(C(=O)/C=C/c2ccccc2)cc1: 17.7
- COc1c(O)c2c(=O)cc3c4c5c(cc(=O)c6c(O)c(OC)c(CC(C)O)c(c(c1CC(C)O)c24)c65)OCO3 (stereo not drawn): 8.58

* * *

compounds and their reported TGI
- Test system: HOP-62 NSCLC
- assay.comment: NCI tumour cell line growth inhibition, 48 h
measurement.name: TGI

• CSc1nc(SC)c2c(C#N)[nH]nc2n1 = > 100 µM
• COc1ccc(CCN(C)C2CCC(C#N)(c3ccc(OC)c(OC)c3)CC2)cc1OC (stereo not drawn) = > 100 µM
• CC1(C)[C@@H]2CC[C@@]1(C)CN(CCC[N+](C)(C)C)C2 = > 100 µM
• CC1=Cc2cccc(C)c2C(=O)C1=O = 30.2 µM
• COc1cccc(N2C(Cl)C(=O)C2c2c[nH]c3ccccc23)c1 (stereo not drawn) = > 100 µM
• COc1ccc(-c2nc(SCC(=O)NNC(=S)Nc3ccccc3)[nH]c2-c2ccc(OC)cc2)cc1 = 46.1 µM
• COC(=O)C(Cc1ccc2c(c1)CCC2)Cc1ccc2c(c1)CCC2 = > 100 µM
• CC1(C)OC[C@@H](O)[C@H](C#N)CO1 = > 100 µM
• COc1cc(O)c2c(c1)C(=O)c1cc3c(c(O)c1C2=O)C(OC1OC(C)C(OC)C(O)C1OC)C(OC)C(C)(O)C3=O (stereo not drawn) = 44.2 µM
• N#CC(C(=O)/C(=N\NC(N)=O)C(C#N)c1ccc(Cl)cc1)c1ccc(Cl)cc1 (stereo not drawn) = > 100 µM
• COC(C)(C)C1(O)CC[C@@H](C)CC1=O (stereo partly drawn) = > 100 µM
• O=C(NCP(=O)(Oc1ccccc1)Oc1ccccc1)OCc1ccccc1 = > 100 µM
• Clc1cc2c(c(CSc3nc4ccccc4n4cccc34)c1)OCOC2 = 31.8 µM
• COC(=O)C(=Cc1cc(OC)c(OC)c(OC)c1-c1cc2c(cc1C1(C)OCCS1)OCO2)C(=O)OC (stereo not drawn) = > 100 µM
• Oc1cc(Cl)cc2cccnc12 = > 100 µM
• N#CNC(=NCc1ccccc1)N(Cc1ccccc1)Cc1ccccc1 = > 31.6 µM
• COc1ccc(N2C(=O)CC(=O)N(NC(=O)C(C)Oc3ccccc3C)C2=S)cc1 (stereo not drawn) = > 100 µM
• COc1c(O)c2c(=O)cc3c4c5c(cc(=O)c6c(O)c(OC)c(CC(C)O)c(c(c1CC(C)O)c24)c65)OCO3 (stereo not drawn) = 4.01 µM
• CC1=CCC([C@@](C)(O)CCCC(C)(C)N=C=S)CC1 (stereo partly drawn) = 40 µM
• C[C@@H]1C[C@@H]([C@@H](CC2CC(=O)NC(=O)C2)OC(=O)CC(=O)c2ccccc2)C(=O)[C@@H](C)C1 = > 100 µM
• CN(C)CCC(/C=C/c1ccccc1)=N\Nc1ccccc1 = 8.93 µM
• C=CCCCCC1CCC2CCC(CCCCC=C)N12 (stereo not drawn) = 33 µM
• CCOC(=O)N[C@H]1CCc2cc(OC)c(OC)c(OC)c2-c2ccc(SC)c(=O)cc21 = > 100 µM
• Nc1ncc(-c2ccc3ncnc(Nc4ccc(F)c(Cl)c4)c3c2)cn1 = 4.45 µM
• O=[N+]([O-])C(=C(Nc1cccc2cccnc12)Nc1cccc2cccnc12)C(Cl)=C(Cl)Cl = > 100 µM
• COc1cc(OC)cc(C(=O)CC(=O)c2cc(OC)cc(OC)c2)c1 = > 100 µM
• CC12CCC(=O)C[C@H]1CCC(OC=O)C2Br (stereo partly drawn) = > 100 µM
• Cc1nc(Nc2cccnc2)sc1C(=O)/C=C/c1ccc(F)cc1 = 7.6 µM
• Cc1nc(Nc2ccc(Cl)cc2)sc1C(=O)NNC(=S)NN = 33 µM
• CCN1CN(c2ccccc2)C2(CCN(CC3COc4ccccc4O3)CC2)C1=O (stereo not drawn) = > 100 µM
• COc1ccc2/c(=C/c3ccc(N(C)C)cc3)c3cc(-c4ccccc4)[n+](C)n3c2c1 = 2.63 µM
• CSC1=N/C(=C\c2ccc(C)cc2)C(=O)N1CN1CCCCC1 = > 100 µM
• CN1CCOC1c1ccccc1O (stereo not drawn) = > 100 µM
• COc1ccc(C2c3cn[nH]c3CC3CCCCC32)cc1 (stereo not drawn) = 36.8 µM
• O=C1C=C/C(=N\N=C(c2ccccc2)c2ccccc2)O1 = > 10 µM
• Cc1nn(-c2ccccc2)c2c1C(c1cc3ccccc3nc1Cl)NC(=O)N2 (stereo not drawn) = 54.4 µM
• COc1ccc(OCC(=O)O)c2c1CCCC2=O = > 100 µM
• CN(C)CC[C@H](CSc1ccccc1)Nc1ccc(S(=O)(=O)NC(=O)c2ccc(N3CCN(Cc4ccccc4-c4ccc(Cl)cc4)CC3)cc2)cc1[N+](=O)[O-] = > 60.2 µM
• O=C(Cc1ccc(F)c(Cl)c1)Nc1cc(C2(C(F)(F)F)CC2)nn1CC1CCCCC1 = > 15 µM
• Cc1cccc(C)c1NC(=O)C(Cc1c[nH]c2ccccc12)NC(=O)OCc1ccccc1 (stereo not drawn) = > 100 µM
• CCOc1ccc(/C=C2\N=C(c3ccc([N+](=O)[O-])cc3)OC2=O)cc1 = > 100 µM
• O=C(/C(=C/c1ccc(Cl)cc1)c1ccccc1)c1ccccc1 = 57.5 µM
• O=P(O)(O)C(N=C(Nc1ccccc1)Nc1ccccc1)P(=O)(O)O = > 100 µM
